# Assay Summary: Metabolic stability in mouse liver microsomes assessed as compound remaining after 10 mins
# Type: ADME, Microsome
# Stated Conditions: liver microsomes, read-out: Stability

{"columns": ["Molecule", "remaining at 10 min (%)"],
 "data": [
  ["CN1CCN(C(C)(C)c2ccc(NC(=O)c3ncc(C#N)[nH]3)c(C3=CCC(C)(C)CC3)c2)CC1", 110],
  ["N#Cc1cnc(C(=O)Nc2ccc(CCO)cc2C2=CCCCC2)[nH]1", 3],
  ["CC1(C)CC=C(c2cc(CCN3CCOCC3)ccc2NC(=O)c2ncc(C#N)[nH]2)CC1", 49],
  ["CC1(C)CC=C(c2cc(CCO)ccc2NC(=O)c2ncc(C#N)[nH]2)CC1", 41],
  ["N#Cc1c[nH]c(C(=O)Nc2ccc(CCS(=O)(=O)N3CCOCC3)cc2C2=CCCCC2)n1", 93]
]}

* * *

# Assay Summary: Metabolic stability in mouse liver microsomes assessed as compound remaining after 10 mins
# Type: ADME, Microsome
# Stated Conditions: liver microsomes, read-out: Stability
A collection of molecules and their measured remaining at 10 min
Quantity Measured: remaining at 10 min

{"columns": ["Molecule", "Reported Value"],
 "data": [
  ["CC1(C)CC=C(c2cc(C(C)(C)OCCN3CCOCC3)ccc2NC(=O)c2nc(C#N)c[nH]2)CC1", "93%"],
  ["N#Cc1cnc(C(=O)Nc2ccc(CCN3CCOCC3)cc2C2=CCCCC2)[nH]1", "2%"],
  ["CC1(C)CC=C(c2cc(C(C)(C)N3CCS(=O)(=O)CC3)ccc2NC(=O)c2nc(C#N)c[nH]2)CC1", "84%"],
  ["CCN1CCN(C(C)(C)c2ccc(NC(=O)c3nc(C#N)c[nH]3)c(C3=CCC(C)(C)CC3)c2)CC1", "84%"],
  ["N#Cc1cnc(C(=O)Nc2ccc(CN3CCOCC3)cc2C2=CCCCC2)[nH]1", "5%"],
  ["CC1(C)CC=C(c2cc(CN3CCN(CCO)CC3)ccc2NC(=O)c2nc(C#N)c[nH]2)CC1", "79%"],
  ["CC1(C)CC=C(c2cc(C(C)(C)NCCN3CCOCC3)ccc2NC(=O)c2nc(C#N)c[nH]2)CC1", "62%"],
  ["CC(C)(O)Cc1ccc(NC(=O)c2nc(C#N)c[nH]2)c(C2=CCCCC2)c1", "61%"],
  ["CC1(C)CC=C(c2cc(C(C)(C)N3CCN(CCO)CC3)ccc2NC(=O)c2nc(C#N)c[nH]2)CC1", "98%"]
]}

* * *

# Assay Summary: Metabolic stability in human liver microsomes assessed as compound remaining after 10 mins
# Format: ADME
# Stated Conditions: liver microsomes, read-out: Stability
Please note: remaining at 10 min exactly at 90% is NO. Only values below 90% get YES.

{"columns": ["Molecule", "Group Label"],
 "data": [
  ["CC(C)(O)Cc1ccc(NC(=O)c2nc(C#N)c[nH]2)c(C2=CCCCC2)c1", "YES"],
  ["CC1(C)CC=C(c2cc(C(C)(C)O)ccc2NC(=O)c2nc(C#N)c[nH]2)CC1", "NO"],
  ["CC1(C)CC=C(c2cc(C(C)(C)N3CCN(CCO)CC3)ccc2NC(=O)c2nc(C#N)c[nH]2)CC1", "NO"],
  ["N#Cc1cnc(C(=O)Nc2ccc(CCN3CCOCC3)cc2C2=CCCCC2)[nH]1", "YES"],
  ["N#Cc1c[nH]c(C(=O)Nc2ccc(CCS(=O)(=O)N3CCOCC3)cc2C2=CCCCC2)n1", "NO"],
  ["COCCNCC(C)(C)c1ccc(NC(=O)c2nc(C#N)c[nH]2)c(C2=CCC(C)(C)CC2)c1", "YES"],
  ["N#Cc1c[nH]c(C(=O)Nc2ccc(CCC(=O)O)cc2C2=CCCCC2)n1", "YES"],
  ["CC1(C)CC=C(c2cc(CCO)ccc2NC(=O)c2ncc(C#N)[nH]2)CC1", "YES"],
  ["CC1(C)CC=C(c2cc(C(C)(C)NCCS(C)(=O)=O)ccc2NC(=O)c2nc(C#N)c[nH]2)CC1", "NO"],
  ["COCCNC(C)(C)c1ccc(NC(=O)c2nc(C#N)c[nH]2)c(C2=CCC(C)(C)CC2)c1", "YES"],
  ["COCCN1CCN(C(C)(C)c2ccc(NC(=O)c3nc(C#N)c[nH]3)c(C3=CCC(C)(C)CC3)c2)CC1", "YES"],
  ["CC1(C)CC=C(c2cc(CCN3CCOCC3)ccc2NC(=O)c2ncc(C#N)[nH]2)CC1", "YES"],
  ["CC1(C)CC=C(c2cc(C(C)(C)N3CCS(=O)(=O)CC3)ccc2NC(=O)c2nc(C#N)c[nH]2)CC1", "NO"]
]}

* * *

# Assay Summary: Terminal half life in Sprague-Dawley rat at 5 mg/kg, po
# Format: ADME, organism-based
# Set-up: dose 5 mg/kg, route oral
# Stated Conditions: in vivo, read-out: beta t1/2 (converted)
Quantity Measured: half-life (h)

{"columns": ["Molecule", "Reported Value"],
 "data": [
  ["CC1(C)CC=C(c2cc(C(C)(C)N3CCN(CCO)CC3)ccc2NC(=O)c2nc(C#N)c[nH]2)CC1.Cl", 6.5]
]}

* * *

# Assay Summary: Systemic clearance in Sprague-Dawley rat at 1 mg/kg, iv
# Format: ADME, organism-based
# Design: dose 1 mg/kg, route intravenous
# Stated Conditions: in vivo

{"columns": ["Molecule", "clearance / mL/min/kg"],
 "data": [
  ["CC1(C)CC=C(c2cc(C(C)(C)N3CCN(CCO)CC3)ccc2NC(=O)c2nc(C#N)c[nH]2)CC1.Cl", 34]
]}

* * *

A collection of molecules and their measured pIC50
# System: UniProtKB P09581
# Sequence (P09581 whole entry): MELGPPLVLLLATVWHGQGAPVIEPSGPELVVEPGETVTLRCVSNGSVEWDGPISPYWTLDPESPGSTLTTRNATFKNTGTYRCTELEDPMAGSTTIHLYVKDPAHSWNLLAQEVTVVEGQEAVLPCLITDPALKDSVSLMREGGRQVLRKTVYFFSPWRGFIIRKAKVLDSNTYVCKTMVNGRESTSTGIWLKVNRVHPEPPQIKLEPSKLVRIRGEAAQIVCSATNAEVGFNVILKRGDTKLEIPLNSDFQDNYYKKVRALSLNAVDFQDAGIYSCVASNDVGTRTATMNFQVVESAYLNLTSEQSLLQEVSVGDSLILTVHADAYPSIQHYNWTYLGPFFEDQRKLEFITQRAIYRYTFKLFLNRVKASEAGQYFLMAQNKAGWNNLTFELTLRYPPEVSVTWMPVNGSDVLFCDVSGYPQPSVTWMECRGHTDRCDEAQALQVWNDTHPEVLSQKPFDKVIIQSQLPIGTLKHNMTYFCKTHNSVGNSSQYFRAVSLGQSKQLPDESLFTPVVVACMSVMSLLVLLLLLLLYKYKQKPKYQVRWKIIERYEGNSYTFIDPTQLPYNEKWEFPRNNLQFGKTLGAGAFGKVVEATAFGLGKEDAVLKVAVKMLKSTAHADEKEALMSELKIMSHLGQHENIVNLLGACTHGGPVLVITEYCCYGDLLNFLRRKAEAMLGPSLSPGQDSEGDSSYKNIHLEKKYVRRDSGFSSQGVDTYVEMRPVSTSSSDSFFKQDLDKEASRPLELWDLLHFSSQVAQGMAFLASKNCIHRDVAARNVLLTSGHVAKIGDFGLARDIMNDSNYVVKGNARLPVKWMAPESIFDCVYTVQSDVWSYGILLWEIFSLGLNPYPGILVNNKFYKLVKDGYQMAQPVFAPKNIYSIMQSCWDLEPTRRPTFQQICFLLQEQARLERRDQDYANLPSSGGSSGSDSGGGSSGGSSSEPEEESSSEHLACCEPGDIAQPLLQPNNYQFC
# Assay Summary: Inhibition of FMS in mouse BMDM cells
pIC50: −log10 of the molar value.
Quantity Measured: pIC50

{"columns": ["Molecule", "System", "Reported Value"],
 "data": [
  ["CC1(C)CC=C(c2cc(-c3nnn[nH]3)ccc2NC(=O)c2ncc(C#N)[nH]2)CC1", "UniProtKB P09581", "< 6.52"],
  ["CC1(C)CC=C(c2cc(CC(=O)NCCCO)ccc2NC(=O)c2ncc(C#N)[nH]2)CC1", "UniProtKB P09581", "< 7.00"],
  ["N#Cc1cnc(C(=O)Nc2ccc(S(N)(=O)=O)cc2C2=CCCCC2)[nH]1", "UniProtKB P09581", "< 6.82"],
  ["CC(O)c1ccc(NC(=O)c2ncc(C#N)[nH]2)c(C2=CCC(C)(C)CC2)c1 (stereo unspecified)", "UniProtKB P09581", "< 6.82"],
  ["CC1(C)CC=C(c2cc(C(=O)O)ccc2NC(=O)c2nc(C#N)c[nH]2)CC1", "UniProtKB P09581", "< 6.52"],
  ["CC1(C)CC=C(c2cc(Cc3nnn[nH]3)ccc2NC(=O)c2ncc(C#N)[nH]2)CC1", "UniProtKB P09581", "< 7.00"]
]}
